test system: LXFL 529 NSCLC; experiment: NCI tumour cell line growth inhibition, 48 h
Record form. Attribute: TGI. Fill in for each entry.

Molecule: COC(=O)c1ccc(Cl)cc1NC(=O)C1CCCCC1
TGI: > 100 µM
--
Molecule: CC(C)N1CN(C(C(=O)N[C@@H]2C(=O)N3C2SC(C)(C)C3C(=O)O)c2ccc(O)cc2)CSC1=S (stereo partly drawn)
TGI: > 100 µM

Here's the next entry for you.
Consider the molecule `Brc1cc2c(cc1C1SCCS1)OCO2` . State its measured TGI.
> 100 µM

###

Would you kindly list TGI for each of these molecules?
tested on: NCI-H522 lung; experiment: NCI tumour cell line growth inhibition, 48 h
One number for each entry, in µM.

Before answering, review these 5 worked examples.
Molecule: c1ccc(CN=C(NCc2ccccc2)NCc2ccccc2)cc1
Tgt: NCI-H522 lung
Test Value: 21.3
//
Molecule: CCN(CC)CCCC(C)N=c1cc(Nc2cc(=NC(C)CCCN(CC)CC)c3cc(OC)ccc3o2)oc2ccc(OC)cc12 (stereo not given)
Tgt: NCI-H522 lung
Test Value: 2.15
//
Molecule: O=C(c1cc2c(c3ccccc13)NCCN=C2C(F)(F)F)C(F)(F)F
Tgt: NCI-H522 lung
Test Value: 72.7
//
Molecule: CC(O)C1(CNc2cc(Cl)nc(N)n2)CC(CCc2ccccc2)C1 (stereo not given)
Tgt: NCI-H522 lung
Test Value: 21.8
//
Molecule: CCOC(=O)/C(=C(/C)NCC(C)C)c1cc(O)c(O)c2c(C)cc(=O)[nH]c12
Tgt: NCI-H522 lung
Test Value: 51.6

I need TGI for every entry listed below, if you could help.
1. CN1CC(CNC(=O)OCc2ccccc2)CC2c3cccc4c3c(cn4C)CC21 (stereo not given)
2. O=C(CCC(C(=O)c1ccccc1)c1ccccc1)c1ccccc1 (stereo not given)
3. C=C(CN1CCN(c2cccc(C(F)(F)F)n2)CC1)c1ccc(C(=S)Nc2ccccc2N)cc1

3.33
8.98
31.4
